- assayText: beta-lactam sensitization of Mtb H37Rv, H37Rv (AID 434955);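 also: growth measured after seven days incubation then overnight dye step; 0% = bacteria only wells and 100% = bacteria with antibiotic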
- reportedConditions: M. tuberculosis H37Rv growth with meropenem, percent inhibition; measured here: primary screen without meropenem; at 25 µM
In all, about 330,000 compounds went through this assay and about 880 (0.27%) were called active. Roughly 1% stayed inconclusive and do not appear here. The list is a sample of the results.
propertyName: inhibition (%)
Write the number in % without appending the unit.

Recorded result, CC(C)N1CCC(NC(=O)Nc2ccccc2)CC1 , inhibition: -1.81

Record CCSC1=NCCN1C(=O)c1ccc(S(=O)(=O)N(CC)CC)cc1 , field inhibition: 0.45

Measured inhibition, CCOC(=O)c1ccc(NC(=O)C2CC(=O)N(c3ccc4c(c3)OCCO4)C2)cc1 (stereo unspecified) : 4.56

Short answer for O=C(Oc1c(-c2ccco2)oc2ccccc2c1=O)c1cccnc1 : inhibition was 91.2

The compound identified as CCOC(=O)C(=O)C1C(=O)Nc2ccccc21 (stereo unspecified) registered its inhibition at 3

Measured inhibition, O=[N+]([O-])c1c(NCCO)cc(Sc2nc3ccccc3s2)c2nonc12 : 96

Field inhibition (entry C[C@@H]1C[C@@H]2O[C@H]2/C=C\C=C\C(=O)Cc2c(Cl)c(O)cc(O)c2C(=O)O1 ) reads 18.4

Value of inhibition reported for the compound CCOc1cc(NC(=O)CCl)c(OCC)cc1NC(C)=O is 98.2

Reported inhibition of Cc1cccc(NC(=O)C(C)N2C(=O)C3C4CC(C(Br)C4Br)C3C2=O)c1 (stereo unspecified) : -16.2

What the record says about CC(C)NS(=O)(=O)c1ccc(CCC(=O)N2CCOCC2)cc1 : inhibition is -6.67

Summary for this compound, CCOc1ccc(NC(=O)C(C)N2C(=O)c3ccccc3C2=O)cc1 (stereo unspecified) : inhibition is 0.73
